- System: MCF7 breast
- ASSAY PROTOCOL: NCI-60 one-dose screen, 48 h (100 = growth as untreated, 0 = no growth, -100 = all killed)
- COND: 10 µM unless noted
The panel holds about 83,000 compounds, 20% with a hit somewhere; the sample as a whole holds those more often.
ASSAY READOUT: growth (%)
One number for each entry, in %.

CC(=O)OC[C@H]1O[C@@H](n2c(=O)cc(N)[nH]c2=O)C(OC(C)=O)[C@@H]1OC(C)=O (some centres not stated)
94.9
c1ccc2oc(-c3cnc4nonc4n3)cc2c1
88.5
CCN(CC)c1ccc(/C=C2/NC(=O)NC2=O)cc1
6.89
COc1cc(CN2CCC(N3CCCC3=O)c3ccccc32)cc(OC)c1OC (configuration not stated)
70.9
COC1(OC)C2(Cl)CCC1(Cl)C(Cl)=C2Cl
98

Count: 8. Required value per item: growth.
1. COc1ccc(-n2nc(C(=O)Nc3ccc(F)cc3)nc2-c2cc(OC)c(OC)c(OC)c2)cc1
2. COc1cc(/C=C2\CN(C(=O)OC(C)(C)C)C/C(=C\c3ccc(O)c(OC)c3)C2=O)ccc1O
3. COc1cc(OC)c2sc(-c3ccc(-n4cncc4-c4ccc(OC)c(N)c4)cc3)nc2c1
4. C=C(COC(C)=O)[C@H]1CC/C(C)=C/CC/C(C)=C/CC[C@@]2(C)O[C@H]2C1
5. O=C(O)c1cc2cc(OCc3ccccc3)ccc2[nH]1
6. CCOC(OCC)c1cnc2nc(NC(C)=O)[nH]c(=O)c2n1
7. CCCCCCCCCCCC1=NC(C)(C)CN1CCO
8. COc1ccc(CC2c3cc(OC)c(OC)cc3CC[N+]2(C)CCC(=O)OCCCCCOC(=O)CC[N+]2(C)CCc3cc(OC)c(OC)cc3C2Cc2ccc(OC)c(OC)c2)cc1OC (configuration not stated)

1: 91.8; 2: 85.9; 3: 67.3; 4: 91.1; 5: 62.4; 6: 96.4; 7: 30.3; 8: 85.2

Count: 6. Required value per item: growth.
1. O=C(c1ccc(OCCN2CCCCC2)cc1)c1c(-c2ccc(O)cc2)sc2cc(O)ccc12
2. COc1cc(-c2nc(-c3ccc(-c4nc5ccc(F)cc5[nH]4)cc3)no2)cc(OC)c1OC
3. C=CC(=O)N1CN(C(=O)C=C)CN(C(=O)C=C)C1
4. COc1cc(Cl)cc(-c2nn(C(=O)NCCN3CCOCC3)cc2-c2ccncc2)c1
5. COc1cccc(NC(=O)OC(C)C)c1
6. CC1CCCN(CCCCOc2ccc(-c3ccc(C#N)cc3)cc2)C1 (configuration not stated)

31.9
41.1
39.6
28.1
102
86.4

Count: 4. Required value per item: growth.
1. C#CCNc1nc(NCCNC(=O)CCl)nc(N(C)CCCCc2ccccc2)n1
2. O=C(Nc1ccc(Br)cc1)Nc1cccc(Br)c1
3. O=c1c2cc(Cl)ccc2oc2ccc(OCCCCCN3CCCCCC3)cc12
4. c1csc(-c2cnc3nonc3n2)c1

1: 86; 2: 13.3; 3: 75.3; 4: 61.3

Count: 4. Required value per item: growth.
1. CC(=O)c1ccc(N2C(=O)c3ccc(Oc4ccccc4)cc3C2=O)cc1
2. CCNCCCn1c2c(c3ccc(Cl)cc3c1=O)C(=O)c1cc(OC)cnc1-2
3. Cc1cc(Nc2c3ccccc3nc3ccccc23)ccc1NS(C)(=O)=O
4. Cc1ccc(Nc2cc(Cl)c([N+](=O)[O-])cc2[N+](=O)[O-])cc1

101
-64.9
27.4
25.9

* * *

What growth was measured for each of the following?
- Test system: KM12 colon
- ASSAY PROTOCOL: NCI-60 one-dose screen, 48 h (100 = growth as untreated, 0 = no growth, -100 = all killed)
- COND: 10 µM unless noted
This is part of a sample that, as a whole, favours compounds with a hit. Of some 83,000 tested, about 20% had one in any assay.
Give bare numbers, in %.

Previously resolved entries follow.
Cc1ccsc1C(=O)CC(=O)C(F)(F)C(F)(F)C(F)(F)F
107
c1cc(C2CCCCC2)ccc1-c1cnc2nonc2n1
14.2
CN(C)c1ccc(C2(Cl)c3ccccc3N(C)c3ccccc32)cc1
36.7
c1coc(CNc2c3ccccc3nc3ccccc23)c1
85.5
COc1cccc(C2C(C#N)=C(N)Oc3cc4c(cc32)OCO4)c1 (centres undefined)
0.487
O=C1Nc2ccc(Br)cc2/C1=N/c1nc(-c2ccccc2)cs1
88.3
CCOC(=O)c1ccc2c(c1)[n+](=O)c(C(=O)c1ccc3ccccc3c1)c(C(F)(F)F)n2[O-]
-92
CCn1c(=O)c(C(=O)NCCCO)c(O)c2ccccc21
120

For the next question, use this compound.
Lab note: measured growth of `Nc1c(Br)cc2c(c1Br)Cc1cc(Cl)ccc1-2` was 98.7

* * *

- Tested on: RXF 393 renal
- ASSAY PROTOCOL: NCI-60 one-dose screen, 48 h
- COND: 10 µM unless noted
The panel holds about 83,000 compounds, 20% with a hit somewhere; the sample as a whole holds those more often. Activity calls are given as the source filed them. The calls were made as follows: active = growth percent below 10; inactive = the rest.
Returns: one label drawn from active, inactive

O=[N+]([O-])c1ccc(N=Nc2c(NNc3ccc([N+](=O)[O-])cn3)cc(S(=O)(=O)O)c3ccccc23)nc1
inactive
CCN(CC)c1ccc(/C=N/NC(=O)c2ccc(S(C)(=O)=O)cc2)c(O)c1
inactive
O=C(O)c1ccccc1Oc1cc(-c2ccco2)nc(OCCN2CCOCC2)n1
inactive
CCOC(=O)C1=C(C(=O)OCC)N(c2cc(OC)c(OC)c(OC)c2)C(N)=C(C#N)C1c1cc(=O)[nH]c2ccccc12 (centres undefined)
inactive
OC(CCCCCCCCC(O)CN1CCc2ccccc2C1)CN1CCc2ccccc2C1 (centres undefined)
inactive
COc1ccc(-c2ccc(-c3ccc(C(=N)N)s3)s2)cc1
active
CCOC(OCC)c1cnc2nc(NC(C)=O)[nH]c(=O)c2n1
inactive
COc1ccc(Oc2nc(Nc3ccc(N4CCOCC4)cc3)ncc2NC(=O)Nc2cccc(OC)c2)cc1
inactive

Fill in: this test's call for `CCn1c(Cc2ccccc2Nc2c(Cl)cccc2Cl)nnc1SCC(=O)Nc1cccc(OC)c1` is ___
inactive

* * *

What growth was measured for each of the following?
- System: DU-145 prostate
- ASSAY PROTOCOL: NCI-60 one-dose screen, 48 h (100 = growth as untreated, 0 = no growth, -100 = all killed)
- COND: 10 µM unless noted
This is part of a sample that, as a whole, favours compounds with a hit. Of some 83,000 tested, about 20% had one in any assay.
One number for each entry, in %.

Count: 3. Required value per item: growth.
1. N=C(N)c1ccc(-c2ccc(-c3ccco3)o2)cc1F
2. CC(=O)NC1C(O[C@H]2C[C@H]3[C@@H]4CC=C5C[C@@H](O)CC[C@]5(C)[C@H]4CC[C@]3(C)[C@H]2[C@H](C)C(=O)CCC(C)C)OCC(O)C1O (stereo partly specified)
3. CC(C)[C@@]12C[C@@H](OC(=O)[C@H]3CO3)[C@@](C)(O1)[C@@H]1CC[C@@H](C)[C@H]1[C@@H]2OC(=O)/C=C/c1ccccc1

1. 31.3
2. 57.7
3. 102

* * *

- Tested on: K-562 leukemia
- ASSAY PROTOCOL: NCI-60 one-dose screen, 48 h
- COND: 10 µM unless noted
Compounds without any hit were thinned out: in the full panel of roughly 83,000, 20% have a hit. Activity calls are given as the source filed them. The calls were made as follows: active = growth percent below 10; inactive = the rest.
Returns: one label drawn from True = active, False = inactive

COc1cc(/C=C/c2cc(/C=C/c3ccc(O)c(OC)c3)n(C(=O)Nc3ccc(F)c(Cl)c3)n2)ccc1O
True
CCN(CC)c1ccc(/C=N/NC(=O)c2ccc(S(C)(=O)=O)cc2)c(O)c1
False
CS(=O)(=O)c1ccc(C(=O)Nc2ccc(Cl)c(-c3ccccn3)c2)c(Cl)c1
False
Cc1ccccc1NC(=O)c1sc2nc3c(cc2c1N)C(=O)CCC3
False
Clc1cc(Cl)cc(-c2cnc3nonc3n2)c1
False

Fill in: this test's call for COc1cc2c(cc1OC)-c1cc(OC)c(OC)cc1C(CN(C)C)C2 (configuration not stated) is ___
False

Fill in: this test's call for `O=C(NCCN1CCCC1)n1cc(-c2ccncc2)c(-c2cc(O)cc(Cl)c2)n1` is ___
False

Fill in: this test's call for `C#CCO[C@H]1CC[C@H](OCC#C)[C@@H]2[C@H]1[C@H]1C[C@@H]3[C@@]4(C)CCC[C@@](C)(C(=O)OC)[C@@H]4CC[C@@]23C=C1C(C)C` is ___
False

Fill in: this test's call for COc1cc(C2CC(c3ccc(Cl)cc3)=NN2C=O)ccc1Oc1ccnc2cc(Cl)ccc12 (configuration not stated) is ___
False

Fill in: this test's call for `C=C(COC(C)=O)[C@H]1CC/C(C)=C/CC/C(C)=C/CC[C@@]2(C)O[C@H]2C1` is ___
False

Fill in: this test's call for `CC1=C(O)C(=O)CC1` is ___
False

Fill in: this test's call for `O=C(Nc1ccc(Br)cc1)Nc1cccc(Br)c1` is ___
True
